Source listed as the NIST ThermoML archive (doi:10.1021/acs.jced.8b00387).

Settings: 333.15 K; 102 kPa; Liquid; Concentric cylinders viscometry
RESULT TYPE: viscosity (mPa·s)
Number in mPa·s, nothing else.

- MOLECULE: "CCCCCCc1ccccc1"
  viscosity / mPa·s: 0.9
- MOLECULE: "CCCCc1ccccc1"
  viscosity / mPa·s: 0.615
- MOLECULE: "CC(CC(C)(C)C)CC(C)(C)C"
  viscosity / mPa·s: 0.744

The recorded viscosity for entry CC(CC(C)(C)C)CC(C)(C)CC(C)(C)C (centres undefined) equals 1.65
